Origin of the recorded values: patent US20210317140A1

Kindly supply the reported BTK @ 0.1 μM (% Inh) values for the records listed here.
target: BTK (Homo sapiens, UniProt Q06187); construct: purchased Reaction Biology Corporation; experiment: BTK kinase assay (HotSpot, 33P ATP); type: biochemical; conditions: 0.1 μM compound, 10 μM ATP
Sequence (Q06187 whole entry): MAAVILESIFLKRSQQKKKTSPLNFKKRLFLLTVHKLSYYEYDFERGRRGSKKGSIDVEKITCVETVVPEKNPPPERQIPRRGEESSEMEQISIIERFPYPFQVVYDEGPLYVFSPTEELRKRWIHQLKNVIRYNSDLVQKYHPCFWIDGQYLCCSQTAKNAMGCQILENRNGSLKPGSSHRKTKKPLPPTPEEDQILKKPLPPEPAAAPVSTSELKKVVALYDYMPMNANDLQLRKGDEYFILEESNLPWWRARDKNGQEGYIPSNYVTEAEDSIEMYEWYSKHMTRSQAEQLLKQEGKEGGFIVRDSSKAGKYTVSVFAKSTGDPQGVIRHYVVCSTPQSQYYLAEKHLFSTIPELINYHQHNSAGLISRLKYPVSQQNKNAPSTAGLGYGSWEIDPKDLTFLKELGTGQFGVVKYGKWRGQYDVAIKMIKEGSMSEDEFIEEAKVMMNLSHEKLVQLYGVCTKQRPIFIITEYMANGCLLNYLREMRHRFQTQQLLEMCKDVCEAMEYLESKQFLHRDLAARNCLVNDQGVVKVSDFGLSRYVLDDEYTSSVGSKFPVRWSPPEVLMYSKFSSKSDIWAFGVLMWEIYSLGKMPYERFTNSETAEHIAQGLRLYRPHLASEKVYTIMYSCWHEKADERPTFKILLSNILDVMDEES
The figure you give is taken to be in % Inh; do not add the unit.

For the molecule shown here, NC(=O)c1cc(-c2nn(C3Cc4ccccc4C3)c3ncnc(N)c23)cc(O)c1F [compound 132] , give the reported BTK @ 0.1 μM (% Inh).
5.3

Could you do the same for Nc1ncnc2c1c(-c1ccc(Br)c(O)c1)nn2C1CCc2ccccc2C1 (centres unmarked) [compound 8] , please?
48.87

Could you do the same for COc1ccc(-c2nn(C3CCc4ccccc4C3)c3ncnc(N)c23)cc1OC (racemic) [compound 17] , please?
41.16

Could you do the same for Nc1ncnc2c1c(-c1cc(O)c(F)c(Cl)c1)cn2C1Cc2ccccc2C1 [compound 110] , please?
91.79

Could you do the same for Nc1ncnc2c1c(-c1ccc(F)c(O)c1)nn2C1CCCc2ccccc21 (centres unmarked) [compound 12] , please?
31.62

Could you do the same for Nc1ncnc2c1c(-c1ccc(C(F)(F)F)c(OCc3ccccc3)c1)nn2C1Cc2ccccc2C1 [Compound No. 43] , please?
3.54

Could you do the same for Nc1nccn2c(C3Cc4ccccc4C3)nc(-c3cc(O)c(F)c(F)c3)c12 [compound 140] , please?
96.04

Could you do the same for COc1ccc(-c2nn(C3CCCc4ccccc43)c3ncnc(N)c23)cc1OC (centres unmarked) [compound 33] , please?
7.04

----------
Biological target: ITK (Homo sapiens)
Construct: purchased Reaction Biology Corporation
Sequence (Q08881 1-620): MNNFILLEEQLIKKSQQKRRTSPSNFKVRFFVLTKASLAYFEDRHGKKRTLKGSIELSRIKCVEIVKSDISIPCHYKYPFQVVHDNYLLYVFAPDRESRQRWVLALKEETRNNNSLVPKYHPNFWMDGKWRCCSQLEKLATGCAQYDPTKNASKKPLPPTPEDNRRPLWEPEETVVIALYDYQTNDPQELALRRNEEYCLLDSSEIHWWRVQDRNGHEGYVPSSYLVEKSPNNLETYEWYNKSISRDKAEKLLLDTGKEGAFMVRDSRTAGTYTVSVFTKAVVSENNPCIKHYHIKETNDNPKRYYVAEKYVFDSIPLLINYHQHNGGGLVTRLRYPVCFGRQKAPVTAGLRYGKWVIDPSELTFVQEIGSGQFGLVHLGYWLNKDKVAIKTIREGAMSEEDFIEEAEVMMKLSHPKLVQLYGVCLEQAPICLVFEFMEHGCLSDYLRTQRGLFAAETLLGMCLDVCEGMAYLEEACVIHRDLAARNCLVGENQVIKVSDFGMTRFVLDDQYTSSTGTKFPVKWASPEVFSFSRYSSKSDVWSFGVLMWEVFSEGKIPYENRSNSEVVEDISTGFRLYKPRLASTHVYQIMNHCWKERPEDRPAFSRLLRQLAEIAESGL
Assay: ITK kinase profiling (BTK protocol)
Format: biochemical
Conditions: 0.3 μM compound
Kindly supply the reported ITK @ 0.3 μM (% Inh) values for the records listed here.
The figure you give is taken to be in % Inh; do not add the unit.

For the compound shown here, C=CC(=O)N1CC(n2nc(-c3cc(O)cc(F)c3)c3c(N)ncnc32)Cc2cc(C)ccc21 (centres unmarked) [compound 31] , give the reported ITK @ 0.3 μM (% Inh).
17.1

Could you do the same for Nc1ncnc2c1c(-c1cc(O)c(F)c(C(F)(F)F)c1)nn2C1Cc2ccccc2C1 , please?
−5.59

Could you do the same for Nc1ncnc2c1c(-c1ccc(Cl)c(O)c1)nn2C1Cc2ccccc2C1 , please?
8.82

Could you do the same for Nc1ncnc2c1c(-c1ccc3cc[nH]c3c1)nn2C1CCc2ccccc2C1 (racemic) , please?
−3.29

Could you do the same for Nc1ncnc2c1c(-c1cc(F)c3c(c1)NCCO3)nn2C1Cc2ccccc2C1 , please?
−2.3

Could you do the same for Nc1ncnc2c1c(-c1cc(O)c(F)c(F)c1)nn2C1Cc2ccccc2C1 , please?
2.1

Could you do the same for COc1ccc(-c2nn(C3CCc4ccccc4C3)c3ncnc(N)c23)cc1OC (racemic) , please?
−0.36

Could you do the same for Nc1ncnc2c1c(-c1cc(O)cc(F)c1)cn2C1Cc2ccccc2C1 , please?
3.68
